Measured CASOB phytotoxicity rating values are reported for all entries that follow.
# Test system: sicklepod (Cassia obtusifolia, CASOB)
# protocol.details: Pre-emerge greenhouse herbicide test, phytotoxicity rating
# Type: in vivo
# measurement.conditions: Rate 125 g al/ha, 14 days after application, rating scale 0-100
Number, no unit, nothing else.

CCOC(=O)C(C)Oc1cc([N+](=O)[O-])c(Oc2cc(-n3c(=O)n4n(c3=S)CCCC4)c(F)cc2Cl)cc1Cl (stereo not shown); 0
CS(=O)(=O)c1cccnc1Oc1cc(-n2c(=O)n3n(c2=S)CCCC3)c(F)cc1Cl; 70

Item O=c1n(-c2cc(Oc3cccc(F)n3)c(Cl)cc2F)c(=S)n2n1CCCC2 with sicklepod (Cassia obtusifolia, CASOB) - CASOB phytotoxicity rating?
70

Lab note: need CASOB phytotoxicity rating for Nc1ccc(Oc2cc(-n3c(=O)n4n(c3=S)CCCC4)c(F)cc2Cl)nc1 on sicklepod (Cassia obtusifolia, CASOB), anyone have it?
70

* * *

# Test system: upland rice (Oryza sp., var.Tebonnet, RICE)
# protocol.details: Post-emerge greenhouse test, crop damage rating
# Type: in vivo
# measurement.conditions: rate 500 g ai/ha, 14 days after application, scale 0-100
Rule: crop damage rating RICE under 30 gives no (0), otherwise yes (1).

CS(=O)(=O)c1cccnc1Oc1cc(-n2c(=O)n3n(c2=S)CCCC3)c(F)cc1Cl; yes (1)
Nn1c(C(F)(F)F)cc(=O)n(-c2cc(Oc3cccc(F)n3)c(Cl)cc2F)c1=O; yes (1)
CC(C)S(=O)(=O)c1cccnc1Oc1cc(-n2c(=O)n3n(c2=S)CCCC3)c(F)cc1Cl; yes (1)

Could you tell me if the measured crop damage rating RICE of O=c1n(-c2cc(Oc3ncccc3[N+](=O)[O-])c(Cl)cc2F)c(=S)n2n1CCCC2 reaches 30 or more?
yes (1)

Exam item: decide whether the reported crop damage rating RICE for Cc1nsc(Oc2cc(-n3c(=O)n4n(c3=S)CCCC4)c(F)cc2Cl)c1[N+](=O)[O-] is at least 30.
yes (1)

# check: crop damage rating RICE of O=c1n(-c2cc(Oc3cccc(F)n3)c(Cl)cc2F)c(=S)n2n1CCCC2 is greater than or equal to 30
yes (1)

Check the entry O=c1n(-c2cc(Oc3ccc([N+](=O)[O-])cn3)c(Cl)cc2F)c(=S)n2n1CCCC2 : does crop damage rating RICE equal or exceed 30?
no (0)

Please tell me: is the compound O=c1n(-c2cc(Oc3ccccn3)c(Cl)cc2F)c(=S)n2n1CCCC2 at or over 30 in terms of crop damage rating RICE?
yes (1)

# bool: crop damage rating RICE of N#Cc1ccc(Oc2cc(-n3c(=O)n4n(c3=S)CCCC4)c(F)cc2Cl)nc1 >= 30
no (0)

Given the entry O=c1n(-c2cc(Oc3nc(F)c(F)cc3F)c(Cl)cc2F)c(=S)n2n1CCCC2 , answer whether its crop damage rating RICE meets or surpasses 30.
yes (1)

crop damage rating RICE >= 30 for O=c1n(-c2cc(Oc3cccc(Cl)n3)c(Cl)cc2F)c(=S)n2n1CCCC2 ?
no (0)

* * *

# System: field corn (Zea mays L., var. Dekalb 535, CORN)
# protocol.details: Pre-emerge greenhouse test, crop damage rating
# Format: in vivo
# measurement.conditions: 125 g ai/ha, 14 days after application, rating scale 0-100
property.measured: crop damage rating CORN
Respond numerically, and do not add a unit to the figure.

O=c1cc2n(c(=O)n1-c1cc(Oc3ncccn3)c(Cl)cc1F)CCC2 [Compound 5-12]; 10
CN1CC(=O)N(c2cc(Oc3ncccn3)c(Cl)cc2F)C1=O [Compound 8-3]; 0
O=c1n(CCCF)nnn1-c1cc(Oc2ncccc2C(F)(F)F)c(Cl)cc1Cl [Compound 6-7]; 0
O=c1n(-c2cc(Oc3ccccc3[N+](=O)[O-])c(Cl)cc2F)c(=S)n2n1CCCC2 [Compound 8-6]; 0
O=c1n(-c2cc(Oc3ccc([N+](=O)[O-])cc3C(F)(F)F)c(Cl)cc2F)c(=S)n2n1CCCC2 [Compound 8-14]; 0

Give the measured crop damage rating CORN of Cn1nc(-c2cc(Oc3ncccn3)c(Cl)cc2F)c(Cl)c1C(F)(F)F [Compound 1-7] .
40

* * *

# Test system: sicklepod (Cassia obtusifolia, CASOB)
# protocol.details: Pre-emerge greenhouse herbicide test, phytotoxicity rating
# Assay type: in vivo
# measurement.conditions: Senna obtusifolia, pre-emergence, 336 h, Rate 500 g al/ha, 14 days after application, rating scale 0-100
Reported pest or weed control at 500 g/ha is given for each of the following compounds.
Hi, when you answer, please include the unit after the number. Thanks!

Nn1c(C(F)(F)F)cc(=O)n(-c2cc(Oc3ccc([N+](=O)[O-])cn3)c(Cl)cc2F)c1=O [Compound 9-11]; 20%

In the following, a different compound is considered.
Consider the compound Nn1c(C(F)(F)F)cc(=O)n(-c2cc(Oc3ccccc3)c(Cl)cc2F)c1=O [Compound 9-26] and give its measured pest or weed control at 500 g/ha.
100%

* * *

# Test system: green foxtail (Setaria viridis, SETVI)
# protocol.details: Pre-emerge greenhouse herbicide test, phytotoxicity rating
# Format: in vivo
# measurement.conditions: Rate 125 g al/ha, 14 days after application, rating scale 0-100
property.measured: SETVI phytotoxicity rating

Returns the measured SETVI phytotoxicity rating for the input compound. Input: O=c1n(-c2cc(Oc3nc(Cl)ccc3C(F)(F)F)c(Cl)cc2F)c(=S)n2n1CCCC2
60

For Nc1ccc(Oc2cc(-n3c(=O)n4n(c3=S)CCCC4)c(F)cc2Cl)nc1 , what is its reported SETVI phytotoxicity rating?
30

Would you mind telling me what SETVI phytotoxicity rating value was observed for COc1cc(OC)nc(Oc2cc(-n3c(=O)n4n(c3=S)CCCC4)c(F)cc2Cl)n1 ?
80

Bench note: what SETVI phytotoxicity rating did COc1nc(OC)nc(Oc2cc(-n3c(=O)n4n(c3=S)CCCC4)c(F)cc2Cl)n1 show?
80

* * *

# Test system: field corn (Zea mays L., var. Dekalb 535, CORN)
# protocol.details: Post-emerge greenhouse test, crop damage rating
# Assay type: in vivo
# measurement.conditions: rate 63 g ai/ha, 14 days after application, scale 0-100
property.measured: crop damage rating CORN
No unit in the answer, only the number.

Below, 2 molecules whose answers are already recorded.
Nn1c(C(F)(F)F)cc(=O)n(-c2cc(Oc3cccc(F)n3)c(Cl)cc2F)c1=O; 40
O=c1n(-c2cc(Oc3ncccc3[N+](=O)[O-])c(Cl)cc2F)c(=S)n2n1CCCC2; 30

Which crop damage rating CORN value belongs to O=c1n(-c2cc(Oc3ccc([N+](=O)[O-])cn3)c(Cl)cc2F)c(=S)n2n1CCCC2 ?
0

I have this molecule here, N#Cc1cccnc1Oc1cc(-n2c(=O)n3n(c2=S)CCCC3)c(F)cc1Cl , and I need its recorded crop damage rating CORN.
15

For the molecule shown here, CSc1cccnc1Oc1cc(-n2c(=O)n3n(c2=S)CCCC3)c(F)cc1Cl , give the reported crop damage rating CORN.
20

* * *

# Test system: sicklepod (Cassia obtusifolia, CASOB)
# protocol.details: Pre-emerge greenhouse herbicide test, phytotoxicity rating
# Assay type: in vivo
# measurement.conditions: 500 g ai/ha, 14 days after application, rating scale 0-100
Mark y for phytotoxicity rating CASOB under 80, n if at or over.

O=c1n(-c2cc(Oc3ccccc3)c(Cl)cc2F)c(=S)n2n1CCCC2 [Compound 8-5]; n

Please check: phytotoxicity rating CASOB for N#Cc1cccnc1Oc1cc(-n2nnn(CCCF)c2=O)c(Cl)cc1Cl [Compound 6-5] , strictly under 80 or not?
y

Check if phytotoxicity rating CASOB falls below 80 for CS(=O)(=O)Nc1ccc(Oc2cc(-n3c(=O)cc4n(c3=O)CCC4)c(F)cc2Cl)cc1 [Compound 5-5] .
y

State whether 80 exceeds phytotoxicity rating CASOB recorded for O=c1cc2n(c(=O)n1-c1cc(Oc3ncccn3)c(Cl)cc1F)CCC2 [Compound 5-12] .
n

Determine whether this molecule shows phytotoxicity rating CASOB lower than 80 (ties excluded): O=c1n(CCCF)nnn1-c1cc(Oc2ncccc2[N+](=O)[O-])c(Cl)cc1F [Compound 6-2]
y

API: query returns whether the molecule falls strictly under 80 in phytotoxicity rating CASOB. Query: CN1CC(=O)N(c2cc(Oc3ncccn3)c(Cl)cc2F)C1=O [Compound 8-3]
y

Dear colleague, could you confirm whether phytotoxicity rating CASOB of Cc1nsc(Oc2cc(-n3nnn(CCCF)c3=O)c(F)cc2Cl)c1[N+](=O)[O-] [Compound 6-17] falls below 80? Thanks.
y

# TODO verify phytotoxicity rating CASOB < 80 strictly for this molecule: Cn1c(C(F)(F)F)nc(-c2cc(Oc3ncccc3[N+](=O)[O-])c(Cl)cc2F)c1Cl [Compound 2-1]
y

Please let me know if O=c1sc(=Nc2cc(Oc3ncccc3C(F)(F)F)c(Cl)cc2F)n2n1CCCC2 [Compound 7-1] shows phytotoxicity rating CASOB below 80.
y

Determine if O=c1n(CCCF)nnn1-c1cc(Oc2ncccc2[N+](=O)[O-])c(Cl)cc1Cl [Compound 6-3] shows phytotoxicity rating CASOB strictly lower than 80.
y

Item O=c1sc(=Nc2cc(Oc3ncccn3)c(Cl)cc2F)n2n1CCCC2 [Compound 7-2] : phytotoxicity rating CASOB beneath 80, strictly?
n

Consider O=c1n(-c2cc(Oc3ccc([N+](=O)[O-])cc3C(F)(F)F)c(Cl)cc2F)c(=S)n2n1CCCC2 [Compound 8-14] . Does its phytotoxicity rating CASOB lie strictly below 80?
y

API: query returns whether the molecule falls strictly under 80 in phytotoxicity rating CASOB. Query: O=c1n(CCCF)nnn1-c1cc(Oc2ncc(Br)cn2)c(Cl)cc1F [Compound 6-16]
y
